The reported measurements were obtained from patent US8304391B2.

- MEASUREMENT_TARGET: recombinant EPO-R (Homo sapiens)
- Construct: made in house; host or cells: Chinese Hamster Ovary cells
- Sequence (P19235 25-250 limits assumed): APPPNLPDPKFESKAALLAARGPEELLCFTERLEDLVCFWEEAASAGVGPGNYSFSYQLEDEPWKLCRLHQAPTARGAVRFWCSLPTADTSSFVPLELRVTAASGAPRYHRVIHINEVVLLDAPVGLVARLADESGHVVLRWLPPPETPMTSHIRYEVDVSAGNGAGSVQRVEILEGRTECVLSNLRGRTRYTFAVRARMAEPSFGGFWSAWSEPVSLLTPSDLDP
- PROTOCOL_DESCRIPTION: Competitive binding assay (AQ, bead proximity, tracer AF33068)
- CONDITION_SUMMARY: tracer AF33068 30 nM, 18 hours
Bridges are numbered along the chain shown (N, C = ends). Roman numbers before positions name the chains, in order. Where no end group is shown, it is not given here.

- SUBSTANCE: "I: GGLYACHMGPITWVCQPLRGK-NH2 / II: GGLYACHMGPITWVCQPLRG (disulfide I:6-I:15, II:6-II:15; amide I:21-II:C) [AF32579]"
  IC50, nM: 1.7
